// provenance: PubChem BioAssay (NCI)

System: HOP-62 NSCLC
Assay: NCI tumour cell line growth inhibition, 48 h
Overview of reported TGI across a group of compounds:
MEASUREMENT TYPE: TGI

>>> print(df.to_string())
                                   compound  measurement_type  recorded_result
0  CCOc1c2c(cc3c1C(=O)c1c(OC)cccc1C3=O)C=C(OC)CC2               TGI          > 25 µM
1  C=C(CN1CCN(c2cc(C(F)(F)F)cc(C(F)(F)F)c2)CC1)c1ccc(C(=O)Nc2ccccc2N)cc1               TGI         > 100 µM
2  Cc1cccc(NC(=S)NNC(=O)c2cc(-c3ccccc3)nc3ccccc23)c1               TGI          99.3 µM
3  COc1oc(C2C/C(=C/C(C)=C/C(C)=C/C(C)=C/c3ccc([N+](=O)[O-])cc3)CO2)c(C)c(=O)c1C (stereo not given)               TGI         > 100 µM
4           Nc1ncc(CN2CCCC2)c(-c2ccccc2O)n1               TGI         > 750 µM

* * *

System: NCI-H23 lung
Experiment: NCI tumour cell line growth inhibition, 48 h
Label TRUE for high-side TGI (at or above 40 µM) and FALSE for low-side TGI (below it).

In [3]: df
Out[3]:
                                    molecule  class_assignment
 0  CC(=O)O[C@H]1CSC[C@@H](OC(C)=O)C1[N+](=O)[O-] (stereo partly specified)              TRUE
 1  COc1cc(F)c(F)c(Nc2ccc(I)cc2F)c1NS(=O)(=O)C1(CC(O)CO)CC1 (stereo unspecified)             FALSE
 2    Cc1n[nH]c(=O)c2c3c([nH]c12)-c1ccccc1C3              TRUE
 3  CC1=C(C(=S)Nc2ccc(Cl)c(C(=O)OC(C)C)c2)SCCO1              TRUE
 4    C#Cc1c(C)c(/C=C/C(C)=C\C(=O)OC)n(C)c1C              TRUE
 5  CCc1nnc2sc(-c3ccc(-c4ccccc4[N+](=O)[O-])o3)nn12              TRUE
 6  CCCCCn1sc(=O)n(Cc2ccc(CNC(=O)C(C)c3ccc(CC(C)C)cc3)cc2)c1=O (stereo unspecified)             FALSE
 7  C(/C=C(\Nc1ccccc1)c1ccc2ccccc2c1)=Nc1ccccc1             FALSE
 8  c1ccc(-c2cc(-c3ccccc3)nc(-c3ccncc3)c2)cc1              TRUE
 9  O=C1c2ccc3c4c(ccc(c24)C(=O)N1CCCCO)C(=O)N(CCCCO)C3=O             FALSE
10  CCn1c(=O)nc2n(-c3ccc(SC)cc3)c3ccccc3nc-2c1=O              TRUE
11          Oc1ccccc1/C=N\NC(=S)Nc1ccc(F)cc1              TRUE
12  O=C(NCCN1CCOCC1)c1cc2c(Oc3ccc(NC(=O)C4(C(=O)Nc5ccc(F)cc5)CC4)cc3)ccnc2[nH]1              TRUE
13  C=C(CN1CCN(c2cc(C(F)(F)F)cc(C(F)(F)F)c2)CC1)c1ccc(C(=O)Nc2ccccc2N)cc1              TRUE
14       Cc1c(CCCl)c(Cl)n2c(nc3ccccc32)c1C#N             FALSE
15  COc1cc2c(cc1C)NC(=O)/C2=C/c1c(Cl)[nH]c2ccccc12             FALSE
16  CN(CCNC(=O)c1nn(C)c2c1Cc1ccccc1-2)CCNC(=O)c1nn(C)c2c1Cc1ccccc1-2             FALSE
17             COc1ccc2nc(-c3ccc(N)cc3)sc2c1              TRUE
18  COc1cc([C@H]2OC[C@@H]3C(c4cc(OC)c5c(c4)OCO5)OC[C@H]23)cc(OC)c1OC (stereo partly specified)              TRUE
19  O=C(/C=C/c1ccco1)Nc1ncc(Cc2cc(Cl)ccc2Cl)s1              TRUE
20       COc1ccc(Cl)cc1NC(=O)O/N=C(\Cl)C(C)C              TRUE

* * *

Overview of reported TGI across a group of compounds:
Tested on: HT29 colon
Assay: NCI tumour cell line growth inhibition, 48 h
MEASUREMENT TYPE: TGI (µM)

COMPOUND	MEASUREMENT TYPE	BOUND TYPE	RECORDED RESULT
CCOC(=O)Nc1cc2c(c(N)n1)N=C(c1ccc(Cl)cc1Cl)CN2	TGI	=	0.641
CC(C)C1OC(=O)C(Cc2ccccc2)N(C)C(=O)C(C(C)C)OC(=O)C(Cc2ccccc2)N(C)C(=O)C(C(C)C)OC(=O)C(Cc2ccccc2)N(C)C1=O (stereo unspecified)	TGI	=	2.07
O=C1c2ccccc2CC12Cc1ccc3c(c1C2=O)CCCC3 (stereo unspecified)	TGI	>	100
O=[N+]([O-])C(/C=C(\Cl)[N+](=O)[O-])=C(N1CCOCC1)N1CCOCC1	TGI	=	83.1
CNC(=O)c1sc(-n2cnc3cc(OC)c(OC)cc32)cc1OCc1ccccc1C(F)(F)F	TGI	>	25
C=C1C(C)C2C(Cc3ccccc3)NC(=O)C23C(OC(C)=O)C=CC(C)(O)C(=O)C(C)C/C=C/C3C1O (stereo unspecified)	TGI	>	278

* * *

Tested on: KM12 colon
Assay: NCI tumour cell line growth inhibition, 48 h
Overview of reported TGI across a group of compounds:

COMPOUND	TARGET OF ASSAY	UNIT OF MEASURE	BOUND TYPE	TGI
Clc1ccc(Cc2nc3cc4ccccc4cc3[nH]2)cc1Cl	KM12 colon	µM	=	45.9
CC[C@H](C)[C@H](NC(=O)CN(C)C)C(=O)N(C)[C@H](C[C@@H](OC(C)=O)c1nc(C(=O)NC23C4C5C2C2C3C4C52C(=O)OC)cs1)C(C)C (stereo not given in full)	KM12 colon	µM	>	33.2
O=C1c2ccccc2C(=O)c2c1ccc1c3ccccc3n(-c3ccccc3)c21	KM12 colon	µM	=	50.1
CCc1nnc2sc(-c3ccc(-c4ccccc4[N+](=O)[O-])o3)nn12	KM12 colon	µM	>	100
C(/C=C(\Nc1ccccc1)c1ccc2ccccc2c1)=Nc1ccccc1	KM12 colon	µM	=	12.2
C=C1C(=O)C23C(O)CC4C(C)(C)CCC(O)C4(C)C2CC(OC(C)=O)C1[C@H]3O (stereo not given in full)	KM12 colon	µM	=	31.1
O=C1CC2(CCN(Cc3ccccc3)CC2)C(=O)N1N1CCCCC1	KM12 colon	µM	>	100
COC(=O)[C@]12CC[C@@H](C)[C@H](C)[C@@H]1C1=CC[C@@H]3[C@@]4(C)C[C@@H](OC(C)=O)[C@H](OC(C)=O)[C@@](C)(COC(C)=O)[C@@H]4[C@H](O)C[C@@]3(C)[C@]1(C)CC2	KM12 colon	µM	>	100
O=C(O)COc1c(Cl)cc(Cl)c(C(c2c(Cl)cc(Cl)c(OCC(=O)O)c2Cl)C(Cl)(Cl)Cl)c1Cl	KM12 colon	µM	>	100
C#Cc1c(C)c(/C=C/C(C)=C\C(=O)OC)n(C)c1C	KM12 colon	µM	>	100
C1CCC(CC2CCC(NC3=NCCO3)CC2)CC1 (stereo not given)	KM12 colon	µM	=	32.7
CCOC(=O)c1c(CN2CCCCC2)nc2ccc(Cl)cc2c1-c1ccccc1	KM12 colon	µM	=	78.3
CCOc1c2c(cc3c1C(=O)c1c(OC)cccc1C3=O)C=C(OC)CC2	KM12 colon	µM	>	25
Clc1ccc(Cc2nc3cc(Cl)c(Cl)cc3n2CC2CCCN3CCCCC23)cc1 (stereo not given)	KM12 colon	µM	=	40
O=C1N[C@@H]([C@H]2CC[C@H](Cl)CN2)C(=O)N[C@H]1[C@H]1CC[C@H](Cl)CN1	KM12 colon	µM	=	19.1
COC(=O)[C@@H]1CN(C(=O)Cc2ccccc2)C(=O)N1	KM12 colon	µM	>	100
NC1=Nc2ncccc2C(=O)NN1	KM12 colon	µM	>	10
CCNC(=O)O/N=C1\CCC2[C@@H]3CC=C4C[C@@H](OC(=O)NCC)CC[C@]4(C)C3CC[C@]12C (stereo not given in full)	KM12 colon	µM	=	13.8
CN1CCN(Cc2ccc(NC(=O)c3cncc(C#Cc4c(N)ncc5ccccc45)c3)cc2C(F)(F)F)CC1	KM12 colon	µM	=	0.618
Cc1cccc(NC(=S)NNC(=O)c2cc(-c3ccccc3)nc3ccccc23)c1	KM12 colon	µM	>	100
